Reported EC50 (read off the curve) values follow for various binders
Biological target: T1, cynomolgus ROR1 on CHO-K1-cynoROR1 cells (cynomolgus monkey, UniProt A0A2K5WTX7 30-937)
T1 construct: whole, on cells
Assay: flow cytometry on CHOK1-cynoROR1 cells, MFI (APC-A Median) [top panel]

## Input Supply reported EC50 (read off the curve) belonging to this binder: PR005341 (antibody, human IgG1, V domains shown, HCAb (heavy chain-only, human IgG1 Fc), no light chain) VH: EVQLVESGGGLVKPGGSLRLSCVASGFTFSDYYMSWIRQAPGKGLEWISYISSSGSSIYYAESVKGRFTISRDNAKNSLYLQMNRLRAEDTALYYCARTPPSSDNWYEDFDYWGQGALVTVSS
## Output ~3 nM

***
## Input Retrieve EC50 (read off the curve) measured for PR005340 (antibody, human IgG1, V domains shown, HCAb (heavy chain-only, human IgG1 Fc), no light chain) VH: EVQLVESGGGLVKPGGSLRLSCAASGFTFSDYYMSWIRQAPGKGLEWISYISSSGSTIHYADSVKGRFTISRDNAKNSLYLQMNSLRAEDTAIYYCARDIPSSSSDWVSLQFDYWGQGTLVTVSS and print it.
## Output ~3 nM
